# System: 873145-292-R-J1-PDC complex spheroid viability
# assayOverview: Anticancer human tumor 873145-292-R-J1-PDC patient-derived renal clear cell carcinoma cell line growth inhibition [POLQ]
# conditionInfo: second compound 3.16 µM; first compound 0.00316 µM; stronger effect = lower value
quantity: viability, T/C (%)
All answers are understood in %, so give the number only.

Form field viability, T/C, entry Cn1ncnc1[C@H]1c2n[nH]c(=O)c3cc(F)cc(c23)N[C@@H]1c1ccc(F)cc1 + Cc1cccc(N(C)C(=O)C2C(O)CCN2c2nc(C)cc(C(F)(F)F)c2C#N)c1 : 105

Form field viability, T/C, entry COc1cccc(OCCCN)c1-c1cc(Nc2cnc(C#N)cn2)n[nH]1 + Cc1cccc(N(C)C(=O)C2C(O)CCN2c2nc(C)cc(C(F)(F)F)c2C#N)c1 : 98.9

Form field viability, T/C, entry COc1cccc(OCCCN)c1-c1cc(Nc2cnc(C#N)cn2)n[nH]1 + Nc1ccc(C#CCN(C(=O)Cc2ncc(C(F)(F)F)cc2C(F)(F)F)c2ccc(F)cc2)nn1 : 90.3

Form field viability, T/C, entry CC[C@@]1(O)C(=O)OCc2c1cc1n(c2=O)Cc2cc3c(CN(C)C)c(O)ccc3nc2-1 + Nc1ccc(C#CCN(C(=O)Cc2ncc(C(F)(F)F)cc2C(F)(F)F)c2ccc(F)cc2)nn1 : 112

Form field viability, T/C, entry C=CCn1c(=O)c2cnc(Nc3ccc(N4CCN(C)CC4)cc3)nc2n1-c1cccc(C(C)(C)O)n1 + Nc1ccc(C#CCN(C(=O)Cc2ncc(C(F)(F)F)cc2C(F)(F)F)c2ccc(F)cc2)nn1 : 105

###

# Test system: 873145-292-R-J1-PDC complex spheroid viability
# assayOverview: Anticancer human tumor 873145-292-R-J1-PDC cell line growth inhibition [POLQ];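 also: spheroids exposed to compounds for 7 days before viability readout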
# conditionInfo: curve of first compound; second compound 0.1 µM
Assign IC50 to each entry below.

Form field IC50, entry Nc1ccn(C2OC(CO)C(O)C2(F)F)c(=O)n1 (stereo unspecified) + COC1C(OC(N)=O)C(O)C(Oc2ccc3c(O)c(NC(=O)c4ccc(O)c(CC=C(C)C)c4)c(=O)oc3c2C)OC1(C)C : 1.09 µM

Form field IC50, entry CCc1cc2c(N3CCc4c(cc(Cn5ccnc5)cc4-c4cn(C)nc4C(F)(F)F)C3=O)cc(C)nc2c(OC)n1 + COC1C(OC(N)=O)C(O)C(Oc2ccc3c(O)c(NC(=O)c4ccc(O)c(CC=C(C)C)c4)c(=O)oc3c2C)OC1(C)C : > 10 µM

Form field IC50, entry O=C(Nc1ccc(O)c(NS(=O)(=O)c2ccc(F)cc2)c1)c1ccc(-c2ccccc2)cc1 + Nc1ccc(C#CCN(C(=O)Cc2ncc(C(F)(F)F)cc2C(F)(F)F)c2ccc(F)cc2)nn1 : > 10 µM

Form field IC50, entry CC1COCCN1c1cc(C2(O)CC3CCC(C2)O3)c2cnn(-c3ccn[nH]3)c2n1 (stereo unspecified) + COC1C(OC(N)=O)C(O)C(Oc2ccc3c(O)c(NC(=O)c4ccc(O)c(CC=C(C)C)c4)c(=O)oc3c2C)OC1(C)C : 0.562 µM

Form field IC50, entry CCc1cc2c(N3CCc4c(cc(Cn5ccnc5)cc4-c4cn(C)nc4C(F)(F)F)C3=O)ccnc2c(OC)n1 + COC1C(OC(N)=O)C(O)C(Oc2ccc3c(O)c(NC(=O)c4ccc(O)c(CC=C(C)C)c4)c(=O)oc3c2C)OC1(C)C : > 10 µM

Form field IC50, entry O=c1[nH]cc(F)c(=O)[nH]1 + Nc1ccc(C#CCN(C(=O)Cc2ncc(C(F)(F)F)cc2C(F)(F)F)c2ccc(F)cc2)nn1 : > 10 µM

Form field IC50, entry COc1cccc2c1C(=O)c1c(O)c3c(c(O)c1C2=O)CC(O)(C(=O)CO)CC3OC1CC(N)C(O)C(C)O1 (stereo unspecified) + Cc1cccc(N(C)C(=O)C2C(O)CCN2c2nc(C)cc(C(F)(F)F)c2C#N)c1 : 1.4 µM

Form field IC50, entry C=CC(=O)N1CCN(c2nc(=O)n(-c3c(C)ccnc3C(C)C)c3nc(-c4c(O)cccc4F)c(F)cc23)C(C)C1 (stereo unspecified) + Nc1ccc(C#CCN(C(=O)Cc2ncc(C(F)(F)F)cc2C(F)(F)F)c2ccc(F)cc2)nn1 : > 10 µM

Form field IC50, entry CNCc1ccc(-c2[nH]c3cc(F)cc4c3c2CCNC4=O)cc1 + COC1C(OC(N)=O)C(O)C(Oc2ccc3c(O)c(NC(=O)c4ccc(O)c(CC=C(C)C)c4)c(=O)oc3c2C)OC1(C)C : > 10 µM

Form field IC50, entry COc1cc2cc(C(=O)CCC(=O)O)sc2cc1OC + Cc1cccc(N(C)C(=O)C2C(O)CCN2c2nc(C)cc(C(F)(F)F)c2C#N)c1 : > 10 µM

Form field IC50, entry CNCc1ccc(-c2[nH]c3cc(F)cc4c3c2CCNC4=O)cc1 + Nc1ccc(C#CCN(C(=O)Cc2ncc(C(F)(F)F)cc2C(F)(F)F)c2ccc(F)cc2)nn1 : > 10 µM

###

# System: 873145-292-R-J1-PDC complex spheroid viability
# assayOverview: Anticancer human tumor 873145-292-R-J1-PDC cell line growth inhibition [POLQ];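 also: spheroids exposed to compounds for 7 days before viability readout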;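 as to viability, T/C: luminescence signal used as surrogate for viable cell content; 100% = DMSO vehicle control viability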
# conditionInfo: second compound 10 µM; first compound 1 µM; stronger effect = lower value
quantity: viability, T/C

Form field viability, T/C, entry CCc1cc2c(N3CCc4c(cc(Cn5ccnc5)cc4-c4cn(C)nc4C(F)(F)F)C3=O)cc(C)nc2c(OC)n1 + COC1C(OC(N)=O)C(O)C(Oc2ccc3c(O)c(NC(=O)c4ccc(O)c(CC=C(C)C)c4)c(=O)oc3c2C)OC1(C)C : 77.7%

Form field viability, T/C, entry CC(C)n1c(=O)n(C)c2cnc3cc(F)c(-c4ccc(OCCCN5CCCCC5)nc4)cc3c21 + COC1C(OC(N)=O)C(O)C(Oc2ccc3c(O)c(NC(=O)c4ccc(O)c(CC=C(C)C)c4)c(=O)oc3c2C)OC1(C)C : 90.5%

Form field viability, T/C, entry COc1cc2cc(C(=O)CCC(=O)O)sc2cc1OC + Cc1cccc(N(C)C(=O)C2C(O)CCN2c2nc(C)cc(C(F)(F)F)c2C#N)c1 : 97.7%

###

Assign viability, T/C to each entry below.
# System: 873145-292-R-J1-PDC complex spheroid viability
# assayOverview: Anticancer human tumor 873145-292-R-J1-PDC cell line growth inhibition [POLQ];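 also: spheroids exposed to compounds for 7 days before viability readout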;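 as to viability, T/C: luminescence signal used as surrogate for viable cell content; 100% = DMSO vehicle control viability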
# conditionInfo: second compound 3.16 µM; first compound 0.0316 µM; stronger effect = lower value
All answers are understood in %, so give the number only.

// compound CCCS(=O)(=O)Nc1ccc(F)c(C(=O)c2c[nH]c3ncc(-c4ccc(Cl)cc4)cc23)c1F + COC1C(OC(N)=O)C(O)C(Oc2ccc3c(O)c(NC(=O)c4ccc(O)c(CC=C(C)C)c4)c(=O)oc3c2C)OC1(C)C , assay 873145-292-R-J1-PDC complex spheroid viability, viability, T/C value: 102

// compound CC1COCCN1c1cc(C2(O)CC3CCC(C2)O3)c2cnn(-c3ccn[nH]3)c2n1 (stereo not drawn) + Nc1ccc(C#CCN(C(=O)Cc2ncc(C(F)(F)F)cc2C(F)(F)F)c2ccc(F)cc2)nn1 , assay 873145-292-R-J1-PDC complex spheroid viability, viability, T/C value: 89.2

// compound COc1cccc(OCCCN)c1-c1cc(Nc2cnc(C#N)cn2)n[nH]1 + COC1C(OC(N)=O)C(O)C(Oc2ccc3c(O)c(NC(=O)c4ccc(O)c(CC=C(C)C)c4)c(=O)oc3c2C)OC1(C)C , assay 873145-292-R-J1-PDC complex spheroid viability, viability, T/C value: 71.9

###

# Tested on: 873145-292-R-J1-PDC complex spheroid viability
# assayOverview: Anticancer human tumor 873145-292-R-J1-PDC cell line growth inhibition [POLQ];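 also: spheroids exposed to compounds for 7 days before viability readout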;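 as to viability, T/C: luminescence signal used as surrogate for viable cell content; 100% = DMSO vehicle control viability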
# conditionInfo: second compound 0.1 µM; first compound 0.0316 µM; stronger effect = lower value
quantity: viability, T/C (%)
All answers are understood in %, so give the number only.

Form field viability, T/C, entry C=CCn1c(=O)c2cnc(Nc3ccc(N4CCN(C)CC4)cc3)nc2n1-c1cccc(C(C)(C)O)n1 + Nc1ccc(C#CCN(C(=O)Cc2ncc(C(F)(F)F)cc2C(F)(F)F)c2ccc(F)cc2)nn1 : 86.4

Form field viability, T/C, entry COc1cc2cc(C(=O)CCC(=O)O)sc2cc1OC + COC1C(OC(N)=O)C(O)C(Oc2ccc3c(O)c(NC(=O)c4ccc(O)c(CC=C(C)C)c4)c(=O)oc3c2C)OC1(C)C : 105

Form field viability, T/C, entry CC(C)n1c(=O)n(C)c2cnc3cc(F)c(-c4ccc(OCCCN5CCCCC5)nc4)cc3c21 + Cc1cccc(N(C)C(=O)C2C(O)CCN2c2nc(C)cc(C(F)(F)F)c2C#N)c1 : 94.7

Form field viability, T/C, entry CCc1cc2c(N3CCc4c(cc(Cn5ccnc5)cc4-c4cn(C)nc4C(F)(F)F)C3=O)ccnc2c(OC)n1 + Nc1ccc(C#CCN(C(=O)Cc2ncc(C(F)(F)F)cc2C(F)(F)F)c2ccc(F)cc2)nn1 : 98.7

Form field viability, T/C, entry Cn1ncnc1[C@H]1c2n[nH]c(=O)c3cc(F)cc(c23)N[C@@H]1c1ccc(F)cc1 + Nc1ccc(C#CCN(C(=O)Cc2ncc(C(F)(F)F)cc2C(F)(F)F)c2ccc(F)cc2)nn1 : 102

The reported numbers originate from PubChem BioAssay AID1963834.
